Tested on: Escherichia coli
Assay: microbe, parasite or virus in culture
Conditions: ATCC 25922, 18 h
Description: Antibacterial activity against Escherichia coli ATCC 25922 after 18 hrs by broth microdilution method
endpoint: MIC (µg/mL)

[[record]]
substance = "H-LRRLRRRWWWRRRLRRL-NH2"
result_comparator = "="
experimental_value = 4

[[record]]
substance = "H-LRRLRRRWLRRLRRR-NH2"
result_comparator = ">"
experimental_value = 128

[[record]]
substance = "H-WRRWRRRWRRRWRRW-NH2"
result_comparator = "="
experimental_value = 32

[[record]]
substance = "H-LRRLRRRLRRLRRRWRRRLRRLRRRLRRL-OH"
result_comparator = "="
experimental_value = 8

[[record]]
substance = "H-ARRARRRWRRRARRA-NH2"
result_comparator = "="
experimental_value = 64

[[record]]
substance = "H-LRRLRRRWRRRLRRL-NH2"
result_comparator = "="
experimental_value = 16

[[record]]
substance = "H-FRRFRRRWRRRFRRF-NH2"
result_comparator = "="
experimental_value = 8

[[record]]
substance = "H-LRRLRRRWWRRRLRRL-NH2"
result_comparator = "="
experimental_value = 16


###

Test system: Pseudomonas aeruginosa
Experiment: Antibacterial activity against ciprofloxacin-resistant Pseudomonas aeruginosa 11411 after 18 hrs by broth microdilution method
Type: functional
Conditions: Pseudomonas aeruginosa, 11411, 18 h
Response field label: string, one of Criterion met (MIC strictly below 100 µg/mL) or Criterion not met.

[[record]]
substance = "H-FRRFRRRWRRRFRRF-NH2"
label_value = "Criterion not met"

[[record]]
substance = "H-LRRLRRRWLRRLRRR-NH2"
label_value = "Criterion not met"

[[record]]
substance = "H-LRRLRRRLRRLRRRWRRRLRRLRRRLRRL-OH"
label_value = "Criterion met"

[[record]]
substance = "H-LRRLRRRWRRRLRRL-NH2"
label_value = "Criterion met"

[[record]]
substance = "H-WRRWRRRWRRRWRRW-NH2"
label_value = "Criterion not met"

[[record]]
substance = "H-ARRARRRWRRRARRA-NH2"
label_value = "Criterion not met"

[[record]]
substance = "H-LRRLRRRWWRRRLRRL-NH2"
label_value = "Criterion met"

[[record]]
substance = "H-LRRLRRRWWWRRRLRRL-NH2"
label_value = "Criterion met"


###

Tested on: RAW264.7
Assay: Cytotoxicity in mouse RAW264.7 cells after 24 hrs by MTT assay
Type: cell-based
Details: raw264.7, 24 h
Items are presented alongside their recorded CC10.
endpoint: CC10

[[record]]
substance = "H-LRRLRRRWLRRLRRR-NH2"
experimental_value = "> 256 µg/mL"

[[record]]
substance = "GENTAMICIN"
experimental_value = "> 256 µg/mL"

[[record]]
substance = "H-ARRARRRWRRRARRA-NH2"
experimental_value = "> 256 µg/mL"

